target: D(1A) dopamine receptor (Homo sapiens); experiment: Antagonist of Human D 1 Dopamine Receptor: qHTS; conditions: HEK293 TREx D1 cells, calcium flux, dopamine EC80; at 10 µM
The campaign covered roughly 360,000 compounds. About 11,000 (3.1%) were called active. Cut-off read from the data, not from the text of the source: active = activity change below about -30%; inactive = the rest. This is one part of a sample in which actives are shown more often than they occur.
Please state which outcome applies, choosing from true = active, false = inactive

compound	answer label
COC(=O)c1ccc(C2C(C(=O)Nc3ccccc3)=C(C)Nc3nc4ccccc4n32)cc1 (centres undefined)	false

**Query** So what was the verdict on `Cc1nn(C)c(Oc2ccccc2)c1CCNS(=O)(=O)c1ccc(F)cc1` in this test?
**Result** false

**Query** So what was the verdict on CCOC(=O)c1c(NC(=O)c2ccc(S(=O)(=O)N(C)CC3CCCO3)cc2)sc2c1CC(C)(C)NC2(C)C (centres undefined) in this test?
**Result** false

**Query** So what was the verdict on CC(C)(C)C1CCc2c(sc(NC(=O)c3ccccc3F)c2C(=O)N2CCCCC2)C1 (centres undefined) in this test?
**Result** false

**Query** So what was the verdict on `CCOC(=O)c1c(-c2ccc(OC)cc2)oc2ccc(OCc3ccc(C(=O)OC)cc3)cc12` in this test?
**Result** false

**Query** So what was the verdict on `CCOC(=O)N1CCN(C(=O)c2ccc(S(=O)(=O)Nc3cccc(C(F)(F)F)c3)cc2)CC1` in this test?
**Result** true

**Query** So what was the verdict on O=C(CC1Oc2ccccc2NC1=O)NCc1ccc(F)cc1 (centres undefined) in this test?
**Result** false

**Query** So what was the verdict on `COCCCNC(=O)c1ccc(NC(=O)c2nsc3ccccc23)cc1` in this test?
**Result** false

**Query** So what was the verdict on `COCCCNC(=S)NC(=O)c1ccc([N+](=O)[O-])cc1` in this test?
**Result** false
